PROTOCOL: clinical
RUN PARAMETERS: human, in vivo, Subject C, Urine Results

| MOLECULE | UOM | concentration at 2 day |
| --- | --- | --- |
| NC(N)=Nc1nc(CSCCC(N)=NS(N)(=O)=O)cs1 [Famotidine] | ng/mL | 0 |
| CN(C)CCOC(c1ccccc1)c1ccccc1 [Diphenhydramine] | ng/mL | 0 |
| O=C1O[C@H]([C@@H](O)CO)C(O)=C1O [Ascorbic Acid] | ng/mL | 2490 |

---

This section presents molecules with their documented concentration at 1 day values.
PROTOCOL: clinical
RUN PARAMETERS: human, in vivo

| MOLECULE | concentration at 1 day / ng/mL |
| --- | --- |
| CN(C)CCOC(c1ccccc1)c1ccccc1 [Diphenhydramine] | 0 |
| NC(N)=Nc1nc(CSCCC(N)=NS(N)(=O)=O)cs1 | 0 |
| CN(C)C(=O)C(CCN1CCC(O)(c2ccc(Cl)cc2)CC1)(c1ccccc1)c1ccccc1 [Loperamide] | 0 |
| O=C1O[C@H]([C@@H](O)CO)C(O)=C1O | 30.7 |
| CNC(=C[N+](=O)[O-])NCCSCc1ccc(CN(C)C)o1 | 0 |
| Cc1cc2nc3c(=O)[nH]c(=O)nc-3n(C[C@H](O)[C@H](O)[C@H](O)CO)c2cc1C | 85.5 |
| COc1ccc2c(c1)[C@]13CCCC[C@@H]1[C@H](C2)N(C)CC3 | 0 |

---

The reader will find reported concentration at 8 day values listed item by item below.
PROTOCOL: clinical
RUN PARAMETERS: human, in vivo

| MOLECULE | UOM | concentration at 8 day |
| --- | --- | --- |
| CN(C)CCOC(c1ccccc1)c1ccccc1 [Diphenhydramine] | ng/mL | 0 |
| Cc1cc2nc3c(=O)[nH]c(=O)nc-3n(C[C@H](O)[C@H](O)[C@H](O)CO)c2cc1C | ng/mL | 43.1 |
| CN(C)C(=O)C(CCN1CCC(O)(c2ccc(Cl)cc2)CC1)(c1ccccc1)c1ccccc1 [Loperamide] | ng/mL | 0.0265 |
| CNC(=C[N+](=O)[O-])NCCSCc1ccc(CN(C)C)o1 | ng/mL | 0.048 |
| NC(N)=Nc1nc(CSCCC(N)=NS(N)(=O)=O)cs1 | ng/mL | 0 |
| O=C1O[C@H]([C@@H](O)CO)C(O)=C1O | ng/mL | 27 |
| COc1ccc2c(c1)[C@]13CCCC[C@@H]1[C@H](C2)N(C)CC3 | ng/mL | 0.197 |

---

In this section, each of the compounds is paired with its reported concentration at 4 day.
PROTOCOL: clinical
RUN PARAMETERS: human, in vivo, Subject C, Urine Results

| COMPOUND | UOM | concentration at 4 day |
| --- | --- | --- |
| O=C1O[C@H]([C@@H](O)CO)C(O)=C1O [Ascorbic Acid] | ng/mL | 2520 |
| NC(N)=Nc1nc(CSCCC(N)=NS(N)(=O)=O)cs1 [Famotidine] | ng/mL | 0 |
| CN(C)CCOC(c1ccccc1)c1ccccc1 [Diphenhydramine] | ng/mL | 0 |

---

Quick reference for Subject C, Urine Results among some compounds
PROTOCOL: clinical
RUN PARAMETERS: human, in vivo, 2 day
READOUT KIND: Subject C, Urine Results (ng/m)

| COMPOUND | READOUT KIND | VALUE REPORTED |
| --- | --- | --- |
| CN(C)CCOC(c1ccccc1)c1ccccc1 [Diphenhydramine] | Subject C, Urine Results | 0 |
| CNC(=C[N+](=O)[O-])NCCSCc1ccc(CN(C)C)o1 [Ranitidine] | Subject C, Urine Results | 4930 |
| Cc1cc2nc3c(=O)[nH]c(=O)nc-3n(C[C@H](O)[C@H](O)[C@H](O)CO)c2cc1C [Riboflavin] | Subject C, Urine Results | 4940 |
| O=C1O[C@H]([C@@H](O)CO)C(O)=C1O [Ascorbic Acid] | Subject C, Urine Results | 2106 |
| NC(N)=Nc1nc(CSCCC(N)=NS(N)(=O)=O)cs1 [Famotidine] | Subject C, Urine Results | 0 |
